Tested on: plasmin
protocol.summary: Sensitivity to the tissue protease plasmin (HPLC)
Format: in vitro ADME
conditions.used: 0.05 U plasmin, 37° C., 30 min, pH 7.5
Positions of bridges follow the written chain, without caps; N, C: chain ends. Non-standard residues stand in square brackets, D forms with d. Residues, ends and D or L forms follow the SMILES beside them. Nle = CCCC[C@H](N)C(=O)O; Orn = NCCC[C@H](N)C(=O)O; Dab = NCC[C@H](N)C(=O)O
experimental.endpoint: stability against plasmin

CCCC[C@@H]1NC(=O)[C@H](CC(N)=O)NC(=O)[C@H](N)CSSC[C@@H](C(=O)N[C@@H](Cc2c[nH]c3ccccc23)C(=O)O)NC(=O)[C@H]([C@@H](C)CC)NC(=O)[C@H](CC(N)=O)NC(=O)[C@H](CO)NC(=O)[C@H](Cc2ccccc2)NC(=O)[C@H](Cc2ccc(O)cc2)NC1=O (H-[dC]N[Nle]YFSNICW-OH; disulfide 1-9; N-terminus assumed) : stable against plasmin
CC[C@H](C)[C@@H]1NC(=O)[C@H](CC(N)=O)NC(=O)[C@H](CO)NC(=O)[C@H](Cc2ccccc2)NC(=O)[C@H](Cc2ccc(O)cc2)NC(=O)[C@H](CCCN)NC(=O)[C@H](CC(N)=O)NC(=O)[C@H](N)CSSC[C@@H](C(=O)N[C@@H](Cc2c[nH]c3ccccc23)C(=O)O)NC1=O (H-[dC]N[Orn]YFSNICW-OH; disulfide 1-9; N-terminus assumed) : stable against plasmin
CC[C@H](C)[C@@H]1NC(=O)[C@H](CC(N)=O)NC(=O)[C@H](CO)NC(=O)[C@H](Cc2ccccc2)NC(=O)[C@H](Cc2ccc(O)cc2)NC(=O)[C@H](CCN)NC(=O)[C@H](CC(N)=O)NC(=O)[C@H](N)CSSC[C@@H](C(=O)N[C@@H](Cc2c[nH]c3ccccc23)C(=O)O)NC1=O (H-[dC]N[Dab]YFSNICW-OH; disulfide 1-9; N-terminus assumed) : stable against plasmin
